Biological target: Tyrosine-protein kinase JAK1 (Homo sapiens, UniProt P23458)
Sequence (P23458 whole entry): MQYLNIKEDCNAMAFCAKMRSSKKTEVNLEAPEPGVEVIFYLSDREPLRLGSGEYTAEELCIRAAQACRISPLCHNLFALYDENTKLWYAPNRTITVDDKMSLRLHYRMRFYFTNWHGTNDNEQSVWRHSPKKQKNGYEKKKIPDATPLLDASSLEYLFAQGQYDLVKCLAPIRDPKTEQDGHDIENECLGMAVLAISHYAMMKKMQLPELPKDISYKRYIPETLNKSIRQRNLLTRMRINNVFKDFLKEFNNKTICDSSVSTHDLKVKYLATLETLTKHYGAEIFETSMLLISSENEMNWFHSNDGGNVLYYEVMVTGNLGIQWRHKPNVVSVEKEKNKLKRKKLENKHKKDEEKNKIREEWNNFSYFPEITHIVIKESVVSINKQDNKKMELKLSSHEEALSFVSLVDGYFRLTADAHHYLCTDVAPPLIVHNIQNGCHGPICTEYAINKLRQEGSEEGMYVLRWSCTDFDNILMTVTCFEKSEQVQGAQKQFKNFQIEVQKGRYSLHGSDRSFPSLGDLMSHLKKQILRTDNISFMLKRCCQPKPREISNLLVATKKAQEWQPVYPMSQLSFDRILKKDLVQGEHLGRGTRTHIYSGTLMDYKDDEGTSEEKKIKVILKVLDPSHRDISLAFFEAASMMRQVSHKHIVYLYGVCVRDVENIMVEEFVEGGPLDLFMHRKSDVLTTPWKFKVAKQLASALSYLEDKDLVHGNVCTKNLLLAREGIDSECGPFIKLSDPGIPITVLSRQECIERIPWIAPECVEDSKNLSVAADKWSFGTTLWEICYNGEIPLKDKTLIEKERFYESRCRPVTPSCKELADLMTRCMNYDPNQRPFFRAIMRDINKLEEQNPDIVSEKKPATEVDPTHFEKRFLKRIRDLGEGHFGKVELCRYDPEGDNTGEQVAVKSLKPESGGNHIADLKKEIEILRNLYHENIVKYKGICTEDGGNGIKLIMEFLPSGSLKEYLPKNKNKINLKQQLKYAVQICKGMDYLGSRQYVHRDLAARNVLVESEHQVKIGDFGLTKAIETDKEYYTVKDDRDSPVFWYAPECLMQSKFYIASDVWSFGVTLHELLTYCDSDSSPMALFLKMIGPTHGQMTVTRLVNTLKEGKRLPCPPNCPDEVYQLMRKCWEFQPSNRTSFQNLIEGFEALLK
Test: Inhibition of JAK1-mediated STAT3 phosphorylation in IL6-induced human TF1 cells
pEC50: −log10 of the molar value.
MEASUREMENT_LABEL: pEC50

>>> numeric_result("CS(=O)(=O)N1CCC(n2nnc3cnc4[nH]ccc4c32)CC1")
6.60

[P] CC(C)(C)OC(=O)N[C@@H]1CC[C@@H](n2nnc3cnc4[nH]ccc4c32)C1
[Q] CC1(n2nnc3cnc4[nH]ccc4c32)CCN(S(C)(=O)=O)CC1
Query: // which entry reports the smaller pEC50, P or Q ? Answer = label.
Reply: Q
(Q: 6.66, P: 6.90)
